Molecular target: T1, human ICOS, full-length, expressed on transfected Expi293 cells (human, UniProt Q9Y6W8 21-199)
T1 construct: whole, on cells
T1 sequence (looked up): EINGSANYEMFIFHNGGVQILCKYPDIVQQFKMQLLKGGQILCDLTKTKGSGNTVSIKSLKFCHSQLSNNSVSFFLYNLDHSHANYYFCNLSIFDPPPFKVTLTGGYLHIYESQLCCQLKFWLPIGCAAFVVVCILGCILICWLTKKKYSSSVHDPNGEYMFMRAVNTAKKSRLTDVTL
Assay: flow cytometry, 100 nM, Expi293 cells with human ICOS
assay-metric: MFI ratio to WT (ΔWT) (fold)
Answers are plain numbers, in fold.

For record variant ICOSL IgV-Fc fusion N52R/N57Y/Q100R (Fc fusion) DTQEKEVRAMVGSDVELSCACPEGSRFDLNDVYVYWQTSESKTVVTYHIPQRSSLEYVDSRYRNRALMSPAGMLRGDFSLRLFNVTPQDEQKFHCLVLSRSLGFQEVLSVEVTLHVAANFSVGSGGGGSEPKSSDKTHTCPPCPAPEAEGAPSVFLFPPKPKDTLMISRTPEVTCVVVDVSHEDPEVKFNWYVDGVEVHNAKTKPREEQYNSTYRVVSVLTVLHQDWLNGKEYKCKVSNKALPAPIEKTISKAKGQPREPQVYTLPPSREEMTKNQVSLTCLVKGFYPSDIAVEWESNGQPENNYKTTPPVLDSDGSFFLYSKLTVDKSRWQQGNVFSCSVMHEALHNHYTQKSLSLSPG the listed MFI ratio to WT (ΔWT) is 0.03

Taken from patent US20230235012A1.
